Measured NanoBRET Fold Response accompanies every entry in the list below.
Biological target: HTR4 (Homo sapiens)
Construct: purchased Promega (in-house HiBiT-GPCR construct library, NanoBRET)
Sequence (Q13639 whole entry): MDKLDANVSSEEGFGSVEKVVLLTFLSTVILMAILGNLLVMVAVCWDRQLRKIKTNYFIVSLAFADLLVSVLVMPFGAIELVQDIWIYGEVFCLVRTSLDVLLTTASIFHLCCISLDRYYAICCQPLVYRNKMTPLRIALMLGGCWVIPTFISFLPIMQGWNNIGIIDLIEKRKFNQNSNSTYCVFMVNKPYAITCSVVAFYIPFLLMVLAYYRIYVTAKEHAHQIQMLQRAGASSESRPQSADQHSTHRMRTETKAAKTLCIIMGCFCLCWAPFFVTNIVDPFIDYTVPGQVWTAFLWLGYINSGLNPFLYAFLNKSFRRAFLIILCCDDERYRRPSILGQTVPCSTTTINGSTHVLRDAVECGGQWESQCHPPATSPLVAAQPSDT
Assay: NanoBRET screen HiBiT-HTR4 in HEK293
Format: binding
Conditions: HTR4; tracer 1μM
Protocol: Each tracer candidate was screened across the entire library of HiBiT-GPCR constructs using NanoBRET as the detection modality. As depicted in Figure 4A, the specificity of interactions was evaluated through decrease in BRET due to competitive displacement of a bound tracer by excess parental compound. Each tracer was analyzed for binding to each HiBiT-GPCR fusion in the absence and in the presence of competing parental compound. […]

Worked examples follow.
[[record]]
compound = "CCCn1c(=O)c2[nH]c(-c3ccc(OCC(=O)NCCNC(=O)CCOCCNC(=O)c4ccc(CNC(=O)CCc5ccc6n5[B-](F)(F)[N+]5=C(c7ccc[nH]7)C=CC5=C6)cc4)cc3)nc2n(CCC)c1=O"
target_or_test_system = "HTR4 (Homo sapiens)"
assay_result = 1.09

[[record]]
compound = "N#CN=C(NCCCOc1cccc(CN2CCCCC2)c1)NCCNC(=O)CCOCCOCCOCCOCCNC(=O)CCc1ccc2n1[B-](F)(F)[N+]1=C(c3ccc[nH]3)C=CC1=C2"
target_or_test_system = "HTR4 (Homo sapiens)"
assay_result = 1.05

[[record]]
compound = "COc1ccccc1N1CCN(CCCCN2C(=O)c3ccc(CNC(=O)CCOCCNC(=O)c4ccc(CNC(=O)CCc5ccc6n5[B-](F)(F)[N+]5=C(c7ccc[nH]7)C=CC5=C6)cc4)cc3C2=O)CC1"
target_or_test_system = "HTR4 (Homo sapiens)"
assay_result = 1.03

[[record]]
compound = "Cc1cc2c(s1)Nc1ccccc1N=C2N1CCN(CCCNC(=O)CCOCCOCCOCCOCCNC(=O)CCc2ccc3n2[B-](F)(F)[N+]2=C(c4ccc[nH]4)C=CC2=C3)CC1"
target_or_test_system = "HTR4 (Homo sapiens)"
assay_result = 1.02


Qu. Indicate its recorded NanoBRET Fold Response; the compound in question is O=C(CCc1ccc2n1[B-](F)(F)[N+]1=C(c3ccc[nH]3)C=CC1=C2)NCc1ccc(C(=O)NCCOCCC(=O)N[C@@H]2CC[C@@]3(O)[C@H]4Cc5ccc(O)c6c5[C@@]3(CCN4CC3CC3)[C@H]2O6)cc1 [Naltrexone-3-NB590]
Ans. 1.05

====

Molecular target: AVPR1B (Homo sapiens)
Construct: purchased Promega (in-house HiBiT-GPCR construct library, NanoBRET)
Sequence (P47901 1-424): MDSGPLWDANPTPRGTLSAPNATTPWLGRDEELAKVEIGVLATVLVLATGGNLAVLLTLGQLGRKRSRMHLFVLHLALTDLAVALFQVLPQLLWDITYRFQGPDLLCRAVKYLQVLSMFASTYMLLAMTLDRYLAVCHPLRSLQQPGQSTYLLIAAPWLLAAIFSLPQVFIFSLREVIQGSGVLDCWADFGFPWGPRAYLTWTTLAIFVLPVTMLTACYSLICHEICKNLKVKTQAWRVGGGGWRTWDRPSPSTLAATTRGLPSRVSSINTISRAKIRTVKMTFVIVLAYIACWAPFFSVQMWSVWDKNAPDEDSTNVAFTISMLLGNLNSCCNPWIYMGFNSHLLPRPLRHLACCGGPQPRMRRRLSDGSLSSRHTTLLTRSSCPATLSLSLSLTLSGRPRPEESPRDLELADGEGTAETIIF
Experiment: NanoBRET screen HiBiT-AVPR1B in HEK293
Format: binding
Conditions: AVPR1B; tracer 1μM
Label y when NanoBRET Fold Response < 1; otherwise n.

Qu. Is NanoBRET Fold Response of CCCn1c(=O)c2[nH]c(-c3ccc(OCC(=O)NCCNC(=O)CCOCCNC(=O)c4ccc(CNC(=O)CCc5ccc6n5[B-](F)(F)[N+]5=C(c7ccc[nH]7)C=CC5=C6)cc4)cc3)nc2n(CCC)c1=O strictly below 1?
Ans. n

Qu. Is NanoBRET Fold Response of O=C(CCc1ccc2n1[B-](F)(F)[N+]1=C(c3ccc[nH]3)C=CC1=C2)NCc1ccc(C(=O)NCCOCCC(=O)N[C@@H]2CC[C@@]3(O)[C@H]4Cc5ccc(O)c6c5[C@@]3(CCN4CC3CC3)[C@H]2O6)cc1 [Naltrexone-3-NB590] strictly below 1?
Ans. n

Qu. Is NanoBRET Fold Response of CC(C)N(CC[C@H](c1ccccc1)c1cc(CCNC(=O)CCOCCOCCOCCOCCNC(=O)CCc2ccc3n2[B-](F)(F)[N+]2=C(c4ccc[nH]4)C=CC2=C3)ccc1O)C(C)C strictly below 1?
Ans. y

Qu. Is NanoBRET Fold Response of COc1ccccc1N1CCN(CCCCN2C(=O)c3ccc(CNC(=O)CCOCCNC(=O)c4ccc(CNC(=O)CCc5ccc6n5[B-](F)(F)[N+]5=C(c7ccc[nH]7)C=CC5=C6)cc4)cc3C2=O)CC1 strictly below 1?
Ans. n
